Origin of measurements: the RNAGym collection of RNA variant scans (doi:10.1002/anie.201605470)

Listing of recorded self-cleavage by entry.
B1: Osa-1-4 twister ribozyme (parent)
chain: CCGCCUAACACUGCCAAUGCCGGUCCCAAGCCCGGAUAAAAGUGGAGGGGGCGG

variants of: B1; experiment: self-cleavage, relative activity (ratio to wild type); higher = more cleavage; co-transcriptional
# respond with the number and nothing more

Could you tell me which self-cleavage is on file for `CCGCCUAACACUGCUAAGGCCGGUCCCAAGCCCGGAUAAAAGUGGAGGGGGCGG` ?
0.39

Try `CCGCCUAACAAUGCCAAUGCCGGUCCCAAGACCGGAUAAAAGUGGAGGGGGCGG` next.
0.05

Try `CCGCCUAACACUGCCAAGGCCGGUCGCAAGCCCGGAUAAAAGUGGAGGGGGCGG` next.
0.13

Try `CCGCCUAACACUGCCAAUGCCAGUCCCAAGCCCGGAUAAAAGUGGAGGGGGCGG` next.
1.05

Try `CCGCCUAACACUUCCAAUGCCGGUCCCAAGCCCGGAUAAAAGUGGAGGGGGCGG` next.
0.03
